Origin of measurements: ChEMBL document CHEMBL4265931

Protocol Details: in vitro
Test Conditions: human, sh-sy5y
Description: Cytotoxicity against human SH-SY5Y cells assessed as cell viability at 50 uM after 48 hrs by MTS assay relative to control
Measured Property: viability at 48 h, 50 µM (%)
Numbers only; they are read as %.

q: // lookup viability at 48 h, 50 µM for COc1cc2c(cc1OC)C(=O)C(CC1CCN(Cc3ccccc3)CC1)C2 (stereo unspecified)
a: 64.4

* * *

Readings of pKi for the listed molecules
Protocol Details: Displacement of [3H]-ifenprodil from GluN1a/GluN2B (unknown origin) expressed in mouse L(tk-) cell membranes after 120 mins by scintillation counting analysis
Design: species or system Homo sapiens
Quick note: pKi values are minus log10 of concentrations in mol/L.

Below are worked cases with known answers.
> print(dat)
                                   molecule  reported.measurement
1  COc1ccc(C(=O)CCN2CCC(Cc3ccccc3)CC2)cc1.Cl                  6.70
2         O=C(CN1CCC(Cc2ccccc2)CC1)c1ccccc1                  6.67

q: # input molecule: CC(C(O)c1ccc(O)cc1)N1CCC(Cc2ccccc2)CC1 (centres undefined) ; wanted: its pKi
a: 8.00

q: Entry under review: O=C(CCCN1CCC(Cc2ccccc2)CC1)c1ccc(-c2ccccc2)cc1 . Reported pKi?
a: 7.02

q: So what's the measured pKi for this one? COc1ccc(C(=O)CCCN2CCC(Cc3ccccc3)CC2)cc1.Cl
a: 7.02

q: Endpoint output: pKi of Cl.O=C(CCN1CCOCC1)c1ccc(-c2ccccc2)cc1 . Value?
a: 6.14

q: Quick one: pKi of COc1cccc(C(=O)CCCN2CCC(Cc3ccccc3)CC2)c1.Cl ?
a: 7.31

* * *

Protocol Details: in vitro
Test Conditions: human, sh-sy5y
Description: Cytotoxicity against human SH-SY5Y cells assessed as cell viability at 10 uM after 24 hrs by MTS assay relative to control
Measured Property: viability at 24 h, 10 µM
Could you write the number and then its unit?

q: What does the data say about its viability at 24 h, 10 µM? Entry: COc1cc2c(cc1OC)C(=O)C(CC1CCN(Cc3ccccc3)CC1)C2 (stereo unspecified) [DONEPEZIL]
a: 100%

* * *

Protocol Details: in vitro
Test Conditions: human, SH-SY5Y cells
One threshold, 50%, splits the recorded viability at 48 h, 50 µM values: lower ones are MET, equal or higher ones are NOT MET.

Solved cases (5 shown):
> print(dat)
                               query.smiles  assigned.class
1  COc1cc(/C=C/C(=O)CC(=O)/C=C/c2ccc(O)c(OC)c2)ccc1O         NOT MET
2     Cl.O=C(CCN1CCOCC1)c1ccc(-c2ccccc2)cc1         NOT MET
3    Cl.O=C(CCCN1CCC(Cc2ccccc2)CC1)c1ccccc1         NOT MET
4  COc1cccc(C(=O)CCCN2CCC(Cc3ccccc3)CC2)c1.Cl         NOT MET
5          Cl.O=C(CCN1CCOCC1)c1ccc2ccccc2c1             MET

Lab note: next molecule to report on.
q: Confirm or reject: viability at 48 h, 50 µM of Cl.O=C(CCN1CCCCC1)c1ccc(-c2ccccc2)cc1 lies strictly below 50%
a: MET

* * *

Protocol Details: in vitro
Test Conditions: human, SH-SY5Y cells
Description: Cytotoxicity against human SH-SY5Y cells assessed as cell viability at 10 uM after 48 hrs by MTS assay relative to control
Measured Property: viability at 48 h, 10 µM

Solved entries:
> print(dat)
                               query.smiles         measured.property  reported.measurement
1  COc1ccc(C(=O)CCCN2CCC(Cc3ccccc3)CC2)cc1.Cl  viability at 48 h, 10 µM                 97.3%
2  COc1ccc(C(=O)CCN2CCC(Cc3ccccc3)CC2)cc1.Cl  viability at 48 h, 10 µM                 97.4%

q: Quick check: viability at 48 h, 10 µM of Cl.O=C(CCCN1CCC(Cc2ccccc2)CC1)c1ccccc1 ?
a: 96%
